Collected literature values of Ki measured for Metabotropic glutamate receptor 5 (Rattus norvegicus).

Known results for compounds:
Input line: Fill in Ki for CC(C)c1ccc(S(=O)(=O)c2sc3ncccc3c2-c2ccc(Cl)cc2)cc1 tested with Metabotropic glutamate receptor 5 (Rattus norvegicus).
Output line: < 0.5 µM

Input line: Provide Metabotropic glutamate receptor 5 (Rattus norvegicus) Ki reading for COc1ccc(C(=O)N2CCc3cccnc3C2)cc1C#Cc1ccccn1 .
Output line: 0.017 µM

Input line: State Ki on Metabotropic glutamate receptor 5 (Rattus norvegicus). Entry: O=S(=O)(c1ccc(Cl)cc1)c1sc2ncccc2c1N1CC[C@@H](F)C1
Output line: < 0.5 µM

Input line: Enter Ki (test system Metabotropic glutamate receptor 5 (Rattus norvegicus)) for COc1ccc2ncc(S(=O)(=O)c3ccccc3)c(N3CCN(c4cccc(C)c4C)CC3)c2c1
Output line: > 0.5 µM

Input line: Please tell me the measured Ki for O=S(=O)(c1ccc(F)cc1)c1cnc2c(F)cccc2c1N1CCOCC1 ; system: Metabotropic glutamate receptor 5 (Rattus norvegicus).
Output line: > 0.5 µM

Input line: State, for Metabotropic glutamate receptor 5 (Rattus norvegicus), measured Ki of the compound listed here: COc1ccc(S(=O)(=O)c2cnc3c(F)cccc3c2N2CCOCC2)cc1
Output line: > 0.5 µM

Input line: Identify measured Ki obtained with Metabotropic glutamate receptor 5 (Rattus norvegicus) for CCOC(=O)C1CCCN(c2c(S(=O)(=O)c3ccc(C)cc3)cnc3ccc(F)cc23)C1 (centres unmarked) .
Output line: > 0.5 µM

Attention now shifts to the item below.
Input line: Print Metabotropic glutamate receptor 5 (Rattus norvegicus) Ki for COc1cccc(-c2c(S(=O)(=O)c3cccc(C#N)c3)sc3ncccc23)c1 .
Output line: < 0.5 µM

###

Metabotropic glutamate receptor 5 (Rattus norvegicus, UniProt P31424) pKi, compiled from various sources.
pKi: −log10 of the molar value.

Examples with answers:
Input line: Answer with the recorded pKi of CCOC(=O)C1CCCN(c2c(S(=O)(=O)c3ccc(C)cc3)cnc3ccc(OC)cc23)C1 (centres unmarked) only.
Output line: < 6.30

Input line: Read the entry Cc1nc2c(s1)CN(C(=O)c1ccc(C)c(C#Cc3ccccn3)c1)CC2 and write its reported pKi.
Output line: 8.40

Input line: Answer with the recorded pKi of O=S(=O)(c1cc(Cl)cc(Cl)c1)c1cnc2c(F)cccc2c1-c1ccc(F)c(F)c1 only.
Output line: > 6.70

Input line: Item CC1CCN(c2c(S(=O)(=O)c3ccc(F)cc3)cnc3ccc(F)cc23)CC1 : provide pKi
Output line: > 6.70

Input line: Fill in pKi for record COc1ccc(C(=O)N2CCCc3ccccc3C2)cc1C#Cc1ccccn1
Output line: 7.38

Input line: Look up and report measured pKi for this entry: N#Cc1cccc(S(=O)(=O)c2cnc3c(F)cccc3c2-c2cccc(F)c2)c1
Output line: > 6.70

Input line: Please report pKi for the following compound: COc1ccc(S(=O)(=O)c2cnc3ccc(F)cc3c2N2CCOCC2)cc1Cl
Output line: < 6.30

Input line: Specify reported pKi for the compound shown: O=S(=O)(c1ccc(F)c(F)c1)c1cnc2cc(F)ccc2c1-c1ccccc1F
Output line: > 6.70

Input line: Name the recorded pKi of the compound listed here: O=C(c1ccc(C(F)(F)F)c(C#Cc2ccccn2)c1)N1CCc2ccc(Cl)cc2C1
Output line: 8.70

Input line: Look up and report measured pKi for this entry: COc1ccc(C(=O)N2CCc3nc(C)sc3C2)cc1C#Cc1ccccn1
Output line: 7.64

New cases:
Input line: Return reported pKi. Input compound: Cc1ccc(S(=O)(=O)c2cnc3cc(F)ccc3c2N2CCOCC2)cc1Cl
Output line: > 6.70

Input line: Give me measured pKi, please, for this compound: O=S(=O)(c1cc(Cl)cc(Cl)c1)c1cnc2ccc(F)cc2c1-c1ccc(Cl)cc1
Output line: > 6.70

Input line: Fill in reported pKi for this entry: CC1CCN(c2c(S(=O)(=O)c3cccc(C#N)c3)sc3ncccc23)CC1
Output line: > 6.30

Input line: Return pKi for the following compound: O=S(=O)(c1cc(Cl)cc(Cl)c1)c1cnc2c(F)cccc2c1-c1cccc(Cl)c1
Output line: > 6.70

Input line: Recall and state the measured pKi for O=S(=O)(c1ccc(Cl)cc1)c1sc2ncccc2c1N1CCCC(O)C1 (centres unmarked) .
Output line: > 6.30

Input line: Identify measured pKi associated with COc1ccc(C(=O)N2CCc3nc[nH]c(=O)c3C2)cc1C#Cc1ccccn1
Output line: 7.02

Input line: Specify measured pKi for O=S(=O)(c1ccc(F)cc1)c1cnc2ccc(F)cc2c1-c1ccc(F)cc1 .
Output line: < 6.30

###

What follows is literature data on Ki for Metabotropic glutamate receptor 5 (Rattus norvegicus, UniProt P31424).

Input line: Tell me Ki reported for CC(=O)N1CCN(c2c(S(=O)(=O)c3ccc(Cl)cc3)sc3ncccc23)CC1
Output line: > 1500 nM

Input line: Give me measured Ki, please, for this molecule: Cc1ccc2ncc(S(=O)(=O)c3cc(F)cc(F)c3)c(N3CCOCC3)c2c1
Output line: > 500 nM

Input line: Return Ki for the following molecule: O=S(=O)(c1ccc(F)c(Cl)c1)c1cnc2c(F)c(Cl)ccc2c1-c1ccc(Cl)cc1
Output line: < 200 nM

Input line: Please give the documented Ki of COc1ccc(C(=O)N2Cc3cnc(C)c(OC)c3C2)cc1C#Cc1ccccn1
Output line: 31 nM

Input line: Give Ki for O=S(=O)(c1ccc(F)cc1)c1cnc2cc(Cl)ccc2c1-c1cccc(F)c1
Output line: < 200 nM

Input line: Using the record for N#Cc1ccc(S(=O)(=O)c2sc3ncccc3c2-c2ccc(Cl)cc2)cc1 , state its measured Ki.
Output line: < 500 nM

Input line: Input COc1ccc(S(=O)(=O)c2cnc3cc(Cl)ccc3c2N2CCC(C)CC2)cc1OC , output reported Ki.
Output line: < 200 nM

Input line: For the molecule COc1ccc(S(=O)(=O)c2cnc3ccc(C)cc3c2N2CCC(C)CC2)cc1Cl , give its measured Ki value.
Output line: < 200 nM

***
Input line: Determine its reported Ki: COc1cccc(S(=O)(=O)c2cnc3cc(Cl)ccc3c2N2CCC(C)CC2)c1
Output line: < 200 nM

###

Multiple publications report Ki for Metabotropic glutamate receptor 5 (Rattus norvegicus); what follows is a combined list.

Use these answered entries as a reference point.
Input line: Output reported Ki of the compound CCOC(=O)CC(=O)c1sc2ncccc2c1-c1ccccc1 on Metabotropic glutamate receptor 5 (Rattus norvegicus).
Output line: < 0.5 µM

Input line: Please report the measured Ki for O=S(=O)(c1ccc(F)c(Cl)c1)c1cnc2c(F)cccc2c1-c1cccc(F)c1 tested on Metabotropic glutamate receptor 5 (Rattus norvegicus).
Output line: < 0.2 µM

Input line: Name the recorded Ki of CC1CCN(c2c(S(=O)(=O)c3cc(Cl)cc(Cl)c3)cnc3cc(F)ccc23)CC1 , assay system Metabotropic glutamate receptor 5 (Rattus norvegicus).
Output line: < 0.2 µM

Input line: Write down measured Ki (Metabotropic glutamate receptor 5 (Rattus norvegicus)) for this compound. COc1ccc(CNc2c(S(=O)(=O)c3ccc(Cl)cc3)cnc3ccccc23)cc1
Output line: > 0.5 µM

Input line: Determine reported Ki for N#Cc1ccc(S(=O)(=O)c2sc3ncccc3c2-c2cccc(Cl)c2)cc1 ; test system: Metabotropic glutamate receptor 5 (Rattus norvegicus).
Output line: < 0.5 µM

Moving on to the next compound.
Input line: Supply Ki measured with Metabotropic glutamate receptor 5 (Rattus norvegicus) for COc1cccc(S(=O)(=O)c2cnc3ccc(F)cc3c2-c2ccc(F)cc2)c1 .
Output line: < 0.2 µM

###

The entries below pair molecules with Ki values for Metabotropic glutamate receptor 5 (Rattus norvegicus, UniProt P31424), as found in several publications.

Input line: Name the recorded Ki of COc1ccc(-c2c(S(=O)(=O)c3cccc(C#N)c3)cnc3cc(F)ccc23)cc1 , assay system Metabotropic glutamate receptor 5 (Rattus norvegicus, UniProt P31424).
Output line: < 200 nM

Input line: Enter measured Ki, system Metabotropic glutamate receptor 5 (Rattus norvegicus, UniProt P31424), for the molecule shown: COc1ccc(S(=O)(=O)c2cnc3ccc(F)cc3c2N2CCC(C)CC2)cc1Cl
Output line: < 200 nM

Input line: State Ki (Metabotropic glutamate receptor 5 (Rattus norvegicus, UniProt P31424)) of N#Cc1cc(F)cc(S(=O)(=O)c2sc3ncccc3c2-c2ccccc2F)c1 .
Output line: < 500 nM

Input line: System Metabotropic glutamate receptor 5 (Rattus norvegicus, UniProt P31424). Read-out Ki. Item COc1ccc(C(=O)N2CCc3ncc(C(F)(F)F)cc3C2)cc1C#Cc1ccccn1 . Report value.
Output line: 29 nM

Input line: Look up and report measured Ki (Metabotropic glutamate receptor 5 (Rattus norvegicus, UniProt P31424)) for the following molecule: CC(=O)Nc1ccc(S(=O)(=O)c2sc3ncccc3c2-c2ccc(Cl)cc2)cc1
Output line: > 1500 nM

Input line: Specify Ki for CC1CCN(c2c(S(=O)(=O)c3ccc(Cl)c(Cl)c3)cnc3cc(F)ccc23)CC1 , system Metabotropic glutamate receptor 5 (Rattus norvegicus, UniProt P31424).
Output line: < 200 nM

Input line: Lab note: record Ki of COc1ccc(C(=O)N2CCNc3ccccc3C2)cc1C#Cc1ccccn1 tested on Metabotropic glutamate receptor 5 (Rattus norvegicus, UniProt P31424).
Output line: 112 nM

Input line: State measured Ki of the molecule COc1ccc2ncc(S(=O)(=O)c3ccc(F)cc3)c(N3CCOCC3)c2c1 with Metabotropic glutamate receptor 5 (Rattus norvegicus, UniProt P31424).
Output line: > 500 nM
